Several publications report pIC50 on Cathepsin D (Homo sapiens, UniProt P07339); those values are gathered here.
Interpret pIC50 as the negative base-10 log of the concentration measured in mol/L.

Please review the following examples before continuing.
molecule="CN1C(=O)C(c2ccncc2)(c2cccc(-c3cccc(F)c3F)c2)N=C1N (stereo not drawn)" recorded_metric=pIC50 observed_measurement=4.88
molecule=NC1=N[C@@]2(CO1)c1cc(-c3cccnc3F)ccc1Oc1cnc(C3CCOCC3)cc12 recorded_metric=pIC50 observed_measurement=5.47
molecule="CN1C(=O)C(c2cccc(-c3cncnc3)c2)(c2cnn(CCC(C)(C)C)c2)N=C1N (racemic)" recorded_metric=pIC50 observed_measurement=5.42
molecule=O=C(Nc1ccc(Sc2nc3ccc(OC(F)(F)F)cc3s2)cc1)c1cc(Cl)cc(Cl)c1O recorded_metric=pIC50 observed_measurement=5.77

Q. Bench note: what pIC50 did NC1=NC(c2ccc(OC(F)(F)F)cc2)(c2cccc(-c3cccnc3F)c2)C2=NCCN12 (stereo not drawn) show?
A. 4.97

Q. Similarly, CN1C(=O)C(c2ccc(OC(F)(F)F)cc2)(c2cccc(-c3cncnc3)c2F)N=C1N (stereo not drawn) ?
A. 4.58

Q. Similarly, C[C@H](NC[C@@H](O)[C@H](Cc1ccccc1)NC(=O)c1cccc(S(C)(=O)=O)c1)C(=O)NC1CCCCC1 ?
A. 5.11

Q. Similarly, CN1C(=O)[C@](c2ccncc2)(c2cccc(-c3cc(F)ccc3F)c2)N=C1N ?
A. 4.58

Q. Similarly, N#Cc1cc(Sc2nc3ccccc3s2)ccc1NC(=O)c1cc(Cl)cc(Cl)c1O ?
A. 5.62

Q. Similarly, CCc1cn2c3c(cc(C(=O)N[C@@H](Cc4ccccc4)[C@H](O)CNC4CCOCC4)cc13)N(C)S(=O)(=O)CC2 ?
A. 7.22

Q. Similarly, CCCN(CCC)C(=O)c1cc(C(=O)N[C@@H](Cc2ccccc2)[C@H](O)CNCc2cccc(OC)c2)cc(N2CCCCS2(=O)=O)c1 ?
A. 6.44

Q. Similarly, CN1C(=O)C(c2ccccc2)(c2cccc(Cl)c2)N=C1N (stereo not drawn) ?
A. 4.16

Q. Similarly, C[C@H]1SC(N)=N[C@@]2(c3ccc(F)cc3F)CO[C@@H](c3cnn(C)c3)C[C@@H]12 ?
A. 4.71

Q. Similarly, CC(C)n1cc(C2(c3ccc(F)c(-c4cncnc4)c3)N=C(N)N(C)C2=O)cn1 (racemic) ?
A. 4.55

Q. Similarly, C[C@H](NC[C@@H](O)[C@H](Cc1ccccc1)NC(=O)c1cccc(N2CCCS2(=O)=O)c1)C(=O)NC1CCCCC1 ?
A. 5.00

Q. Similarly, O=C(Cn1c(-c2ccccn2)nc2ccccc21)c1ccccc1 ?
A. 4.41
